- Target of assay: GST-tagged truncated LRRK2 (Homo sapiens)
- Construct: GST-tagged truncated LRRK2 from Invitrogen (Cat # PV4874); GST; purchased Invitrogen PV4874
- Sequence (Q5S007 970-2527 limits assumed): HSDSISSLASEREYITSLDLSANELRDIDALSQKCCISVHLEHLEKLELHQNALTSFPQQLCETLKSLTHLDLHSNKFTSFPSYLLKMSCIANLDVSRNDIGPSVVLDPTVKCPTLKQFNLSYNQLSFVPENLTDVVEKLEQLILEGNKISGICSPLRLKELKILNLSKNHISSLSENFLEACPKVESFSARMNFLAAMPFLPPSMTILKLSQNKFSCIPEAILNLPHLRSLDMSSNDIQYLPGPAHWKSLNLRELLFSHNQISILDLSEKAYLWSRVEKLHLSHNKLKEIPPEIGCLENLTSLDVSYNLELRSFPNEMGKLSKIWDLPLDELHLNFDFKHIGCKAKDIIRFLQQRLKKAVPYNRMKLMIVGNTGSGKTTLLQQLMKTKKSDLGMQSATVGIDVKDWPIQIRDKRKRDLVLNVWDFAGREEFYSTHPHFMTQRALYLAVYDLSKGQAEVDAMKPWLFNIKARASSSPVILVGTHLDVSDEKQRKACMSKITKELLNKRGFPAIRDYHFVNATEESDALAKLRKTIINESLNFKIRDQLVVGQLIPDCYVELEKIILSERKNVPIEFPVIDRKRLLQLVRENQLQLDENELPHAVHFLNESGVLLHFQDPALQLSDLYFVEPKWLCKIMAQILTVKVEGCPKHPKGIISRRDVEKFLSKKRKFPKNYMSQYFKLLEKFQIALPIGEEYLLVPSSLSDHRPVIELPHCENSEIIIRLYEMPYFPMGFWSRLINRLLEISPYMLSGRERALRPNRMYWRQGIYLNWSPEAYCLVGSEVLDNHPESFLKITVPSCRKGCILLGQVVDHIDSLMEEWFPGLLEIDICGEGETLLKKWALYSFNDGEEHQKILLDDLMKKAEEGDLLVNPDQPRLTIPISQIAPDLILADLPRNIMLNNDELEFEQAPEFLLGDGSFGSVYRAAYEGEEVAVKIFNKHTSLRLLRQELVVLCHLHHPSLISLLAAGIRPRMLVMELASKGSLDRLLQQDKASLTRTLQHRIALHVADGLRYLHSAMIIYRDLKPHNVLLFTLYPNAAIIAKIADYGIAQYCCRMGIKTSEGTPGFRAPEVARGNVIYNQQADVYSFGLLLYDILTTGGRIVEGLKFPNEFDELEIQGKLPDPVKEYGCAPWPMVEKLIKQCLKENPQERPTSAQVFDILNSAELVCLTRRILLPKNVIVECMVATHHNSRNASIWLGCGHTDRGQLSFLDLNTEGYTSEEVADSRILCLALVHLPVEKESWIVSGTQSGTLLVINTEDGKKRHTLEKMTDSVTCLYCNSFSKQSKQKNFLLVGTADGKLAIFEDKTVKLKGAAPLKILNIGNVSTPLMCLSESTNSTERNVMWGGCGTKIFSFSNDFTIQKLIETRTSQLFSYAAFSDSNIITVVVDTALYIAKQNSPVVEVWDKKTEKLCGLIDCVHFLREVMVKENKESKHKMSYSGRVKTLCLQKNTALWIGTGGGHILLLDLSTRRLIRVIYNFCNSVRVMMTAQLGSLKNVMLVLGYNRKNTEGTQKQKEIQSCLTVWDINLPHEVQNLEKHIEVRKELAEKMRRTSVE
- Method description: LRRK2 Assay, Format 1 (Lantha Screen), WT
- Format: biochemical
- Assay conditions: Format 1, wild-type LRRK2; geometric mean of 2-4 determinations unless footnoted (a: ≥5 determinations; b: single determination; c: determined on trifluoroacetate salt)
Measurement kind: IC50 (nM)

A selection of reference data follows.
Molecule: Cc1cc(Cc2nc3cnc4ccccc4c3n2C2CCOCC2)no1 [Example 39]
Target of assay: GST-tagged truncated LRRK2 (Homo sapiens)
IC50 / nM: 103
//
Molecule: CC1(C)CC(n2c(Cc3ccon3)nc3cnc4ccccc4c32)CCO1 (stereo not shown) [Example 47]
Target of assay: GST-tagged truncated LRRK2 (Homo sapiens)
IC50 / nM: 103

A = CC[C@@H]1C[C@H](n2c(Cc3ccon3)nc3cnc4ccc(C#N)cc4c32)CCO1 [Example 67]
B = C[C@@H]1C[C@H](n2c(Cc3ncon3)nc3cnc4ccc(Cl)cc4c32)CCO1 [Example 13]
Decide: A or B , by lowest recorded IC50. Provide the label of your selected option as the answer. A
